test system: pentylenetetrazole-induced clonic convulsion; assay: Activity on pentylenetetrazole-induced clonic convulsion (anti-PTZ activity); format: in vivo, mouse (Std-ddY male); details: Mus musculus; 50 mg/kg oral, 2 hours before pentylenetetrazole 85 mg/kg s.c., observed 30 minutes; read-out: Number of mice having antagonistic activity/number of test mice (converted)
quantity name: responders at 50 mg/kg (%)
Provide the reading as a plain figure in %.

Request: responders at 50 mg/kg, test system pentylenetetrazole-induced clonic convulsion, entry `O=c1[nH]c2c(cc1-c1nnc(C3CC3)o1)CN(Cc1ccccc1F)CC2`
100

Request: responders at 50 mg/kg, test system pentylenetetrazole-induced clonic convulsion, entry `COc1ccc(CN2CCc3[nH]c(=O)c(-c4nnc(C5CC5)o4)cc3C2)cc1`
80

Request: responders at 50 mg/kg, test system pentylenetetrazole-induced clonic convulsion, entry `CC(C)c1nnc(-c2cc3c([nH]c2=O)CCN(Cc2ccccc2)C3)o1`
80

Reference source: patent US5367078A
